Entries and their IC50 values follow.
# Tested on: SH-SY5Y
# assay overview: Cytotoxicity against human SH-SY5Y cells
# Type: functional, cell-based

>  <compound>
CN1C(=O)C(=O)NC[C@@H]1CNc1ccc(C(=O)O)cc1

>  <experimental target>
SH-SY5Y

>  <units>
µM

>  <IC50>
54.3

$$$$
>  <compound>
N#Cc1cnc2cccc(O)c2c1O

>  <experimental target>
SH-SY5Y

>  <units>
µM

>  <IC50>
62.6

$$$$
>  <compound>
Cc1cc2[nH]c(=O)c(=O)n(CC(O)C(O)C(O)CO)c2cc1C (stereo not given)

>  <experimental target>
SH-SY5Y

>  <units>
µM

>  <IC50>
71.2

$$$$
>  <compound>
Cc1cc2nc3[nH]c(=O)[nH]c(=O)c3nc2cc1C [LUMICHROME]

>  <experimental target>
SH-SY5Y

>  <units>
µM

>  <IC50>
75.2

$$$$
>  <compound>
N#Cc1cnc2ccccc2c1O

>  <experimental target>
SH-SY5Y

>  <units>
µM

>  <IC50>
66.8

$$$$

* * *

# experimental target: Dual specificity tyrosine-phosphorylation-regulated kinase 1A (Homo sapiens, UniProt Q13627)
# assay overview: Inhibition of DYRK1A (unknown origin) incubated for 2 hrs in presence of [gamma-33P]-ATP by radioactivity based assay
pIC50: −log10 of the molar value.

>  <mol smiles>
Cc1nccc2c1[nH]c1cc(O)ccc12

>  <pIC50>
7.80

$$$$

* * *

# Tested on: T98G
# assay overview: Antiproliferative activity against human T98G cells assessed as reduction in cell viability by MTT assay
# Assay type: functional, cell-based
pIC50: −log10 of the molar value.

>  <mol smiles>
COc1ccc2cc3[n+](cc2c1OC)CCc1cc2c(cc1-3)OCO2

>  <pIC50>
3.92

$$$$

* * *

# assay overview: Cytotoxicity against human U373 MG cells by MTT assay
# Type: functional, cell-based, U-373MG ATCC

>  <mol smiles>
CC(C)[C@@]12NC(=O)[C@@H](Cc3c1[nH]c1ccccc31)n1c2nc2ccccc2c1=O

>  <IC50, µM>
44

$$$$

* * *

# assay overview: Antiproliferative activity against human TMZ-resistant A-172 cells assessed as reduction in cell growth incubated for 48 hrs by MTT assay
# Assay type: functional, cell-based
# applied conditions: TMZ-resistant A-172 cell
pIC50: −log10 of the molar value.
measurement label: pIC50

>  <mol smiles>
COc1ccc2c(c1OC)C(=O)O[C@@H]2[C@H]1c2c(cc3c(c2OC)OCO3)CCN1C

>  <measurement label>
pIC50

>  <assay value>
4.22

$$$$

* * *

# Test system: U-251
# assay overview: Antiproliferative activity against human U-251MG cells assessed as reduction in cell growth incubated for 48 hrs by MTT assay
# Format: functional, cell-based
# applied conditions: U-251, 48 h
measurement label: EC50 (µM)

>  <compound>
COc1ccc2c(c1OC)CN(C)c1c-2ccc2cc3c(cc12)OCO3 [DIHYDROCHELERYTHRINE]

>  <assay value>
94.2

$$$$

* * *

# Tested on: U-251
# assay overview: Cytotoxicity against human U-251MG cells assessed as reduction in cell viability measured after 24 hrs by MTT assay
# Type: functional, cell-based
# applied conditions: U-251, 24 h

>  <compound>
COc1cc2c(cc1OC)[C@@]13CCN4CC5=CCO[C@H]6CC(=O)N2[C@H]1[C@H]6[C@H]5C[C@H]43 [BRUCINE]

>  <IC50, µM>
614

$$$$
